Tested on: MDA-MB-435 melanoma
test summary: NCI-60 one-dose screen, 48 h
measurement conditions: 10 µM unless noted
Compounds without any hit were thinned out: in the full panel of roughly 83,000, 20% have a hit. Active and inactive are the calls of the source. Rule for the calls: active = growth percent below 10; inactive = the rest.
Possible outcomes: active, inactive

| molecule | group |
| --- | --- |
| O=S(=O)(NCCCNc1nccc(-c2c(-c3ccc(F)c(O)c3)nc3occn23)n1)c1ccc(Cl)cc1 | inactive |
| CC1=C([Se]CC(OC(=O)CC[Se]c2ccccc2)C(=O)NC(C)(C)C)C(=O)c2ccccc2C1=O (centres undefined) | active |
| NC(=O)c1cccc(-n2ccc3cc(NC(=O)c4ccc(N5CCOCC5)c(C(F)(F)F)c4)ccc32)n1 | inactive |
| COc1c(C(=O)Nc2ccc(C)c(Br)c2)ccc2ccccc12 | inactive |
| CCOC(=O)c1csc(NC(=O)COc2ccc(/C=C3\Oc4ccccc4C3=O)cc2)n1 | inactive |
| Cc1[nH]c(=O)[nH]c(=O)c1Br | inactive |
| Cn1cc(-c2csc(-c3c[nH]c4ccc(Br)cc34)n2)c2ccnc(Cl)c21 | inactive |
| C=C(C)[C@@H]1CC[C@]2(CO)CC[C@]3(C)[C@H](CC[C@@H]4[C@@]5(C)CC[C@H](NCO)C(C)(C)[C@@H]5CC[C@]43C)[C@@H]12 | active |
| Nc1n[nH]c2cccc(C#Cc3cccc(C(=O)Nc4cc(C(F)(F)F)cc(C(F)(F)F)c4)c3)c12 | inactive |
